Test system: Escherichia coli TOP10;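 also: peptides expressed intracellularly from a pBAD plasmid library in pooled LB shake-flask culture, induced with 0.3% L-arabinose, DNA abundance read by NGS, three biological replicates, DESeq2 with apeglm shrinkage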
Assay: shrunken log2 fold change of peptide-encoding DNA abundance (4.5 h post-induction vs induction); higher = less antimicrobial activity (less host growth inhibition)
Conditions: time post-induction: 4.5 h; library: site-saturation at positions 5, 18, 19, 20
readoutName: shrunken log2 fold change
Kindly provide the number alone.

| monomerSequence | shrunken log2 fold change |
| --- | --- |
| RRIRHRPPRLPRPRPRPHGMPRP | -0.000911 |
| RRIRQRPPRLPRPRPRPWQWPRP | -0.133 |
| RRIRERPPRLPRPRPRPNIEPRP | -0.136 |
| RRIRSRPPRLPRPRPRPFCNPRP | -0.106 |
| RRIRERPPRLPRPRPRPEYRPRP | -0.00146 |
| RRIRSRPPRLPRPRPRPRAGPRP | 1.46 |
| RRIRERPPRLPRPRPRPVNQPRP | -0.123 |
| RRIRVRPPRLPRPRPRPEKFPRP | -0.208 |
| RRIRQRPPRLPRPRPRPNLRPRP | 0.0769 |
| RRIRQRPPRLPRPRPRPYTSPRP | -0.0321 |

Prompt: Can you look up shrunken log2 fold change on Escherichia coli TOP10 for RRIRHRPPRLPRPRPRPTWDPRP ?
Completion: 0.0552

Prompt: Again, but for RRIRNRPPRLPRPRPRPIFYPRP
Completion: 0.00954

Prompt: Further, for RRIRGRPPRLPRPRPRPMPGPRP ?
Completion: 0.479

Prompt: Item: RRIRYRPPRLPRPRPRPLMVPRP
Completion: -0.439

Prompt: Now the sequence RRIRRRPPRLPRPRPRPWTPPRP
Completion: 0.568

Prompt: One more sequence: RRIRCRPPRLPRPRPRPKFPPRP
Completion: -0.0293

Prompt: Follow-up item: RRIRTRPPRLPRPRPRPLPNPRP
Completion: 0.203

Prompt: Now the sequence RRIRERPPRLPRPRPRPNEQPRP
Completion: -0.215

The reported numbers originate from the supplement of paper PMC9112550.
